tested on: H4; experiment: Luminescence Cell-Based Dose Response HTS to Identify Activators of 5'UTR Stem-Loop Driven Prion Protein mRNA Translation in H4 Neuroglioblastoma Cells. [Related pubchem assays: 1829 (Project Summary), 1814 (Primary HTS)]; assay type: functional; conditions: Homo sapiens
Active and inactive are the calls of the source. Rule as the data show it: actives have a measured EC50 and inactives only a lower limit.
Recorded measurements of EC50, one per entry

| COMPOUND | ENDPOINT_RESULT |
| --- | --- |
| ON=C1c2cc(OCCN3CCCCC3)ccc2-c2ccc(OCCN3CCCCC3)cc21 | > 120 µM (not active) |
| CCn1nc(-c2ccccc2)nc2c(=O)n(C)c(=O)nc1-2 | > 120 µM (not active) |
| O=C1CCCC/C1=C/Nc1ccc2c(c1)OCO2 | > 120 µM (not active) |

--- query ---
Can you look up EC50 on H4 for `N#Cc1cc2c(nc1SCC(=O)Nc1sc3c(c1C#N)CCC3)CCCC2` ?
16 µM (active)
